Listed here: items and their measured PBM E-score.
- SYSTEM: Zap1 (UniProt P47043)
- Sequence: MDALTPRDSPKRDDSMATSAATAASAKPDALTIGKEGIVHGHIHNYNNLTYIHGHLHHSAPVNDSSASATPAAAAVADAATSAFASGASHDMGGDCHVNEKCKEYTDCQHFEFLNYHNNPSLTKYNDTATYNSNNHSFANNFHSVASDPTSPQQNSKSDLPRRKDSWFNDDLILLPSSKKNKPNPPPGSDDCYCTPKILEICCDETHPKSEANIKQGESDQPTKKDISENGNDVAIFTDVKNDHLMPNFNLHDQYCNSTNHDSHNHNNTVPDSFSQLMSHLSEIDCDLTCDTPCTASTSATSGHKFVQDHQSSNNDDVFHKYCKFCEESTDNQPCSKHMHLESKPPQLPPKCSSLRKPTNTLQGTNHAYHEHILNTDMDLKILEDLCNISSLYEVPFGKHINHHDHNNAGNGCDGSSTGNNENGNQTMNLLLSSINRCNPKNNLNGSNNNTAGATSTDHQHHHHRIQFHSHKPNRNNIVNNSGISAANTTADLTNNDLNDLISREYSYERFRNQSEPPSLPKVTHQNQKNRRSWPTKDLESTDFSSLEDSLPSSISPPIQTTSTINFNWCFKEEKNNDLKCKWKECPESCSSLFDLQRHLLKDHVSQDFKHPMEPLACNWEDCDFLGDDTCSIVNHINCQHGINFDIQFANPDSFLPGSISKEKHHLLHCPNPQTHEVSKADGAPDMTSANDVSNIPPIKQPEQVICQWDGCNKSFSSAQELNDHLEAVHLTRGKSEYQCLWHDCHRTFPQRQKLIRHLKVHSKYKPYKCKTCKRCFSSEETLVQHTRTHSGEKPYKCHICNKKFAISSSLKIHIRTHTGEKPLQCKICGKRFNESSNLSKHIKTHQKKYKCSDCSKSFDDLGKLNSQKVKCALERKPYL
- TEST_DETAILS: PBM E-score (8-mer binding enrichment) (E-score (-0.5 to 0.5)); higher = stronger / more preferred TF binding
- SETUP_CONDITIONS: protein concentration: 200 nM; construct: GST-full length
Over roughly 33,000 sequences, “E-score (-0.5 to 0.5)” has its median near -0.021; the highest 2% begin near 0.32. The full list was thinned out, with the highest values kept by preference.
READOUT_NAME: PBM E-score

sequence_text=AAGGGTGC experimental_result=0.134
sequence_text=AACACAGT experimental_result=-0.00444
sequence_text=GACCTGAA experimental_result=0.132
sequence_text=ACATACGA experimental_result=0.0717
sequence_text=GAGGTTGA experimental_result=-0.00385
sequence_text=CAGATACA experimental_result=0.0912
sequence_text=AAAGGTTG experimental_result=0.336
sequence_text=CTGGGTTC experimental_result=0.0979
sequence_text=GCGTACCA experimental_result=0.0288
sequence_text=ATCGTGCG experimental_result=0.158
sequence_text=AGTGGTTC experimental_result=0.129
sequence_text=CTGGCCGA experimental_result=-0.318
sequence_text=CGTGGTTA experimental_result=0.348
sequence_text=CTTAATCC experimental_result=-0.131
sequence_text=CAAAGAGG experimental_result=0.0514
sequence_text=GAGGTTAC experimental_result=0.473
sequence_text=ATCAGTAC experimental_result=-0.0201
sequence_text=GTGATGTA experimental_result=0.013
sequence_text=GGGTACTA experimental_result=0.335
sequence_text=AAGTTACA experimental_result=0.169
sequence_text=AGGATTAA experimental_result=-0.0423
sequence_text=AGGTTACT experimental_result=0.457
sequence_text=ACCCCTTA experimental_result=0.344
sequence_text=GATCAGAA experimental_result=-0.106
sequence_text=AGGTTAGC experimental_result=0.23
sequence_text=GAGGTTGC experimental_result=0.238
sequence_text=GAGAGCAC experimental_result=-0.00012
sequence_text=GCGCCTAA experimental_result=0.0328
sequence_text=GGTGGTGA experimental_result=0.23
sequence_text=AGCATTTG experimental_result=-0.00877
sequence_text=CGGTTAAG experimental_result=0.289
sequence_text=AGGTACTA experimental_result=0.29
sequence_text=TCGTACCA experimental_result=0.149
sequence_text=GGTGGTTA experimental_result=0.433
sequence_text=ATTCTCTG experimental_result=-0.159
sequence_text=AGGGTCCA experimental_result=0.214
sequence_text=AGGGTCAT experimental_result=0.449
sequence_text=AGTGGTCA experimental_result=0.197
sequence_text=GAGGTTAA experimental_result=0.429
sequence_text=ATCAGGGC experimental_result=-0.249
sequence_text=GAGGTTCA experimental_result=0.254
sequence_text=ATATCCTG experimental_result=0.103
sequence_text=ACAGGGGG experimental_result=-0.225
sequence_text=ACCCCTGA experimental_result=0.28
sequence_text=ATTGGTTA experimental_result=0.402
sequence_text=ACGTACCA experimental_result=-0.0952
sequence_text=AGGTTAGG experimental_result=0.348
sequence_text=AGGGGGTG experimental_result=-0.204
sequence_text=CAACCGTA experimental_result=0.0143
sequence_text=CTAGCTCA experimental_result=-0.147
sequence_text=CGTGGTCA experimental_result=0.195
sequence_text=ATATGACG experimental_result=-0.122
sequence_text=AGACGCTA experimental_result=-0.167
sequence_text=CGTGGTTC experimental_result=0.185
sequence_text=AAGGGTGG experimental_result=0.19
sequence_text=TAGGTTAA experimental_result=0.319
sequence_text=AGTGGTTG experimental_result=0.312
sequence_text=TAGTACCA experimental_result=0.163
sequence_text=AGGTACGA experimental_result=-0.0106
sequence_text=ATGGGTTG experimental_result=0.234
sequence_text=CTTGGTTC experimental_result=0.232
sequence_text=ATTGGTTG experimental_result=0.186
sequence_text=CAGGTTCG experimental_result=-0.158
sequence_text=CGGGTCCC experimental_result=-0.116
sequence_text=CAGGGTTC experimental_result=0.214
sequence_text=CCAACTGC experimental_result=-0.165

# credit: the supplement of paper PMC3334620
